test system: RXF-631 renal; assay: NCI tumour cell line growth inhibition, 48 h
Property: TGI

Molecule | TGI
O=C1c2ccccc2C(=O)c2nc3ccc(Cl)cc3cc21 | > 100 µM
COc1ccc(CCN=C2CCC(C(=O)NCCc3ccc(OC)c(OC)c3)N2)cc1OC (stereo not drawn) | > 100 µM

Please look at the following molecule next.
Field TGI (RXF-631 renal), entry `C/C(CC(=O)N(C(C)C)C(C)C)=N\NC(=O)c1ccncc1` : > 100 µM

---

TGI by entry:
system: OVCAR-5 ovarian; assay: NCI tumour cell line growth inhibition, 48 h

The molecule identified as `O=C(/C=C/c1cccs1)c1ccccc1Cl` registered its TGI at 28.9 µM

Entry `CO[C@H]1C[C@H](O[C@H]2CC[C@]3(C=O)[C@H]4CC[C@]5(C)[C@@H](C6=CC(=O)OC6)CC[C@]5(O)[C@@H]4CC[C@]3(O)C2)O[C@H](C)[C@H]1O` — recorded TGI = 1.35 µM

Given item `CN1CCN(c2nc(-c3ccncc3)nc3sc4c(c23)CCCCCC4)CC1` , the value recorded as its TGI is 22.9 µM

TGI reported for this molecule COc1nc(NC2OC(COC(C)=O)C(OC(C)=O)C(OC(C)=O)C2OC(C)=O)c(-c2csc(N)n2)c(=O)n1C (centres undefined) : > 100 µM

---

Record type: GI50 measurement. Applies to: SK-OV-3 ovarian

Structure smiles | Test value
COc1cccc(/C=C/C(=O)c2cc3c(N)c(C(=O)Nc4cccc5ccccc45)sc3nc2C)c1 | 2.24 µM
Nc1[nH]c(=O)ncc1CO | > 100 µM
Oc1ccc(Cl)cc1Cc1cc(Cl)ccc1O | 2.81 µM

The reported SK-OV-3 ovarian GI50 of `Cc1cc(Cl)ccc1NS(=O)(=O)c1ccc(-c2cnc(C3CC3)o2)cc1` is 4.32 µM

The reported SK-OV-3 ovarian GI50 of `CN1CCN(c2nc(-c3ccncc3)nc3sc4c(c23)CCCCCC4)CC1` is 12.2 µM

The molecule `CC/C=C\C/C=C\C[C@H](O)C/C=C1/C(=O)C=C[C@@H]1C/C=C\CCCC(=O)OC` , when measured on SK-OV-3 ovarian, yielded GI50 of 5.27 µM

---

tested on: MDA-N; test: NCI tumour cell line growth inhibition, 48 h
Documented TGI across a set of compounds

Compound | Subject of test | TGI
CC1OC(OC2CCC3(C=O)C4CCC5(C)C(C6=CC(=O)OC6)CCC5(O)C4CCC3(O)C2)C(O)C(O)C1O (centres undefined) | MDA-N | 7.94e-05 µM
Nc1nc(Cl)cc(NCC2(O)CCCC2)n1 | MDA-N | > 100 µM
CS(=O)(=O)NC12CCC(c3ccccc31)c1ccccc12 | MDA-N | > 100 µM
CN(C)c1ccc(/C=C2\N=C(c3ccccc3)N(c3ccc4c(c3)Sc3cc(N5C(=O)/C(=C/c6ccc(N(C)C)cc6)N=C5c5ccccc5)ccc3N4)C2=O)cc1 | MDA-N | > 100 µM
CC(C)C(=O)Oc1cc2c(=O)oc3c(OC(=O)C(C)C)c(OC(=O)C(C)C)cc4c(=O)oc(c1OC(=O)C(C)C)c2c34 | MDA-N | > 100 µM
S=C(NCc1ccccc1)N/N=C/c1ccccn1 | MDA-N | > 100 µM
CC(=O)Oc1ccc2c(c1)CC[C@@H]1C2CC[C@]2(C)C(=O)NC(=O)CC12 (some centres undefined) | MDA-N | > 100 µM
CCOC(=O)C(=O)C(=O)NN(C)C1=NCCN1 | MDA-N | > 100 µM

Then there is this compound:
Reported TGI ( `Cc1ccc(-c2n[nH]c(=O)n2/N=C\c2ccccc2)cc1` ) = > 93.9 µM
